Test system: E. coli TESEC Mtb DapB
experiment: growth (OD600 after 10 h); higher = more growth (less inhibition)
condition-description: arabinose induction (level): Low; compound 0.1 mM; raw OD600 reference: median of DMSO wells 0.227, cell-free background 0.041
Structures can show the parent of a compound that is named as a salt.
Reported growth values are given for each entry in this list.
Answer as a number with no unit attached.

Please review the following examples before continuing.
[[record]]
molecule = "CN(C/C=C/C#CC(C)(C)C)Cc1cccc2ccccc12"
target_under_test = "E. coli TESEC Mtb DapB"
recorded_value = 0.218

[[record]]
molecule = "Nc1ccn([C@H]2CC[C@@H](CO)O2)c(=O)n1"
target_under_test = "E. coli TESEC Mtb DapB"
recorded_value = 0.24

[[record]]
molecule = "Cn1c(=O)c2c(ncn2CC(O)CO)n(C)c1=O (stereo not given)"
target_under_test = "E. coli TESEC Mtb DapB"
recorded_value = 0.24

[[record]]
molecule = "COc1ccc(C(=O)c2ccccc2)c(O)c1"
target_under_test = "E. coli TESEC Mtb DapB"
recorded_value = 0.257

[[record]]
molecule = "CCC1(c2ccccc2)NC(=O)N(C)C1=O (stereo not given)"
target_under_test = "E. coli TESEC Mtb DapB"
recorded_value = 0.24

[[record]]
molecule = "CC(N)C12CC3CC(CC(C3)C1)C2 (stereo not given) [Rimantadine Hydrochloride]"
target_under_test = "E. coli TESEC Mtb DapB"
recorded_value = 0.232


Now look at this one.
QUERY: Would you mind telling me what growth value was observed for `CCOCCn1c(N2CCCN(C)CC2)nc2ccccc21` ?
RESULT: 0.211

---

Reported growth values are given for each entry in this list.
Tested on: E. coli TESEC Mtb Alr
experiment: growth (OD600 after 10 h); higher = more growth (less inhibition)
condition-description: arabinose 10000000 nM; compound 0.1 mM; raw OD600 reference: median of DMSO wells 0.146, cell-free background 0.041
Where a name gives a salt, the structure may show the parent alone.
Answer as a number with no unit attached.

Please review the following examples before continuing.
[[record]]
compound = "Cc1nnc(NS(=O)(=O)c2ccc(N)cc2)s1"
target_under_test = "E. coli TESEC Mtb Alr"
property_measured = "growth"
recorded_value = 0.139

[[record]]
compound = "CC1CS(=O)(=O)CCN1/N=C/c1ccc([N+](=O)[O-])o1 (configuration not stated)"
target_under_test = "E. coli TESEC Mtb Alr"
property_measured = "growth"
recorded_value = 0.0554

[[record]]
compound = "COc1cccc2c1C(=O)c1c(O)c3c(c(O)c1C2=O)C[C@@](O)(C(=O)CO)C[C@@H]3O[C@H]1C[C@H](N)[C@H](O)[C@H](C)O1 [Doxorubicin hydrochloride]"
target_under_test = "E. coli TESEC Mtb Alr"
property_measured = "growth"
recorded_value = 0.0474

[[record]]
compound = "CC(C(=O)O)c1ccc2c(c1)[nH]c1ccc(Cl)cc12 (configuration not stated)"
target_under_test = "E. coli TESEC Mtb Alr"
property_measured = "growth"
recorded_value = 0.111

[[record]]
compound = "CC(C)(C)NC[C@H](O)COc1ccccc1C1CCCC1 [Penbutolol sulfate]"
target_under_test = "E. coli TESEC Mtb Alr"
property_measured = "growth"
recorded_value = 0.142


Now look at this one.
QUERY: Would you mind telling me what growth value was observed for Nc1nc2ccc(OC(F)(F)F)cc2s1 [Riluzole hydrochloride] ?
RESULT: 0.194
